Entry source: paper PMC3753236

experiment: Biodistribution of BMS administered as free BMS or nSSL-BMS; settings: C57Bl/6 Ola-Hsd, mouse, heart, iv, 20 mg/kg, BMS in heart, µg drug/g organ, infected mice, 20 mg/kg i.v. on day 6 p.i., 48 h post-injection
assay_readout: concentration at 48 h

Noted for C[C@H]1C[C@H]2[C@@H]3CCC4=CC(=O)C=C[C@]4(C)[C@@]3(F)[C@@H](O)C[C@]2(C)[C@@]1(O)C(=O)COC(=O)CCC(=O)O [BMS, β-methasone hemisuccinate] : its concentration at 48 h reads 3300 ng/g

###

test: Biodistribution of BMS administered as free BMS or nSSL-BMS; conditions: C57Bl/6 Ola-Hsd, mouse, brain, iv, 20 mg/kg, BMS in brain, µg drug/g organ, infected mice, 20 mg/kg i.v. on day 6 p.i., 24 h post-injection
assay_readout: concentration at 24 h

Short answer for C[C@H]1C[C@H]2[C@@H]3CCC4=CC(=O)C=C[C@]4(C)[C@@]3(F)[C@@H](O)C[C@]2(C)[C@@]1(O)C(=O)COC(=O)CCC(=O)O [BMS, β-methasone hemisuccinate] : concentration at 24 h was 100 ng/g

###

assay: Biodistribution of BMS administered as free BMS or nSSL-BMS; conditions: C57Bl/6 Ola-Hsd, mouse, lungs, iv, 20 mg/kg, BMS in lungs, µg drug/g organ, infected mice, 20 mg/kg i.v. on day 6 p.i., 24 h post-injection
assay_readout: concentration at 24 h

The compound listed as C[C@H]1C[C@H]2[C@@H]3CCC4=CC(=O)C=C[C@]4(C)[C@@]3(F)[C@@H](O)C[C@]2(C)[C@@]1(O)C(=O)COC(=O)CCC(=O)O [BMS, β-methasone hemisuccinate] shows concentration at 24 h equal to 2000 ng/g

###

assay: Biodistribution of BMS administered as free BMS or nSSL-BMS; conditions: C57Bl/6 Ola-Hsd, mouse, lungs, iv, 20 mg/kg, BMS in lungs, µg drug/g organ, infected mice, 20 mg/kg i.v. on day 6 p.i., 1 h post-injection
assay_readout: concentration at 1 h (ng/g)
Unit ng/g implied. Number only.

Recorded concentration at 1 h (compound C[C@H]1C[C@H]2[C@@H]3CCC4=CC(=O)C=C[C@]4(C)[C@@]3(F)[C@@H](O)C[C@]2(C)[C@@]1(O)C(=O)COC(=O)CCC(=O)O [BMS, β-methasone hemisuccinate] ): 1600

###

assay: Biodistribution of BMS administered as free BMS or nSSL-BMS; conditions: C57Bl/6 Ola-Hsd, mouse, liver, iv, 20 mg/kg, BMS in liver, µg drug/g organ, infected mice, 20 mg/kg i.v. on day 6 p.i., 24 h post-injection
assay_readout: concentration at 24 h (ng/g)
State just the number; it will be interpreted in ng/g.

Kindly note the recorded concentration at 24 h for C[C@H]1C[C@H]2[C@@H]3CCC4=CC(=O)C=C[C@]4(C)[C@@]3(F)[C@@H](O)C[C@]2(C)[C@@]1(O)C(=O)COC(=O)CCC(=O)O [BMS, β-methasone hemisuccinate] , which is 400

###

test system: non-chloroquine resistant P. falciparum; experiment: P. falciparum culture, 3H-hypoxanthine incorporation; format: cell-based, Plasmodium falciparum; settings: Plasmodium falciparum; 72 h culture, 3H-hypoxanthine; read-out: IC50
pIC50: −log10 of the molar value.
Assign Condition met whenever pIC50 does not fall below 9; assign Condition not met whenever it does.

Use the examples below as a reference point.
[
  {
    "compound": "C[C@H]1C[C@@H]2[C@H]([C@@H](O)C[C@@]3(C)[C@H]2CC[C@]3(O)C(=O)COC(=O)CCC(=O)O)[C@@]2(C)C=CC(=O)C=C12",
    "label_value": "Condition not met"
  },
  {
    "compound": "C[C@H]1[C@@H](O)O[C@@H]2O[C@@]3(C)CC[C@H]4[C@H](C)CC[C@@H]1[C@@]24OO3 [Dihydroartemisinin, dihydroartemisinin]",
    "label_value": "Condition met"
  },
  {
    "compound": "C[C@H]1[C@H](N2CCS(=O)(=O)CC2)O[C@@H]2O[C@@]3(C)CC[C@H]4[C@H](C)CC[C@@H]1[C@@]24OO3 [Artemisone, reference compound]",
    "label_value": "Condition met"
  },
  {
    "compound": "C=C[C@H]1C[N@@]2CC[C@H]1C[C@H]2[C@H](O)c1ccnc2ccc(OC)cc12",
    "label_value": "Condition not met"
  }
]

Now look at this entry.
Kindly determine if pIC50 recorded for C[C@@H]1CC[C@H]2[C@@H](C)C(=O)O[C@@H]3O[C@@]4(C)CC[C@@H]1[C@]32OO4 is above or exactly 9.
Condition met

###

assay: Biodistribution of BMS administered as free BMS or nSSL-BMS; settings: C57Bl/6 Ola-Hsd, mouse, brain, iv, 20 mg/kg, BMS in brain, µg drug/g organ, infected mice, 20 mg/kg i.v. on day 6 p.i., 48 h post-injection
assay_readout: concentration at 48 h (ng/g)
Number in ng/g, nothing else.

// recorded concentration at 48 h for C[C@H]1C[C@H]2[C@@H]3CCC4=CC(=O)C=C[C@]4(C)[C@@]3(F)[C@@H](O)C[C@]2(C)[C@@]1(O)C(=O)COC(=O)CCC(=O)O [BMS, β-methasone hemisuccinate] : 100

###

assay: Biodistribution of BMS administered as free BMS or nSSL-BMS; conditions: C57Bl/6 Ola-Hsd, mouse, lungs, iv, 20 mg/kg, BMS in lungs, µg drug/g organ, infected mice, 20 mg/kg i.v. on day 6 p.i., 6 h post-injection
assay_readout: concentration at 6 h (ng/g)
The reply should be a number in ng/g, with the unit left off.

Data point: C[C@H]1C[C@H]2[C@@H]3CCC4=CC(=O)C=C[C@]4(C)[C@@]3(F)[C@@H](O)C[C@]2(C)[C@@]1(O)C(=O)COC(=O)CCC(=O)O [BMS, β-methasone hemisuccinate] ; concentration at 6 h = 2400

###

Assay: Biodistribution of BMS administered as free BMS or nSSL-BMS
Conditions: C57Bl/6 Ola-Hsd, mouse, liver, iv, 20 mg/kg, BMS in liver, µg drug/g organ, infected mice, 20 mg/kg i.v. on day 6 p.i., 6 h post-injection
Experimental: The total and intraliposomal (after treatment with Dowex 2X-800 anion exchanger, pH 5, which binds all free drug) concentrations of MPS or BMS and their hydrolysis products were quantified using HPLC [5]. Liposome size distribution, phospholipid concentration, drug to lipid ratio, and level of free drug (i.e. percent drug encapsulated) were determined (see Table 1) as previously described. […]
assay_readout: concentration at 6 h (ng/g)
# value in ng/g; strip the unit string

Recorded concentration at 6 h (molecule C[C@H]1C[C@H]2[C@@H]3CCC4=CC(=O)C=C[C@]4(C)[C@@]3(F)[C@@H](O)C[C@]2(C)[C@@]1(O)C(=O)COC(=O)CCC(=O)O [BMS, β-methasone hemisuccinate] ): 3400

###

tested on: non-chloroquine resistant P. falciparum; assay: P. falciparum culture, 3H-hypoxanthine incorporation; format: cell-based, Plasmodium falciparum; details: Plasmodium falciparum
assay_readout: pIC50
In textbook form, pIC50 equals minus log to base ten of the concentration in mol/L.

Lab book: pIC50 of CCN(CC)CCCC(C)Nc1ccnc2cc(Cl)ccc12 (stereo not shown) [Chloroquine, chloroquine] noted as 7.40

###

experiment: Biodistribution of BMS administered as free BMS or nSSL-BMS; conditions: C57Bl/6 Ola-Hsd, mouse, heart, iv, 20 mg/kg, BMS in heart, µg drug/g organ, infected mice, 20 mg/kg i.v. on day 6 p.i., 1 h post-injection
assay_readout: concentration at 1 h

Form: compound = C[C@H]1C[C@H]2[C@@H]3CCC4=CC(=O)C=C[C@]4(C)[C@@]3(F)[C@@H](O)C[C@]2(C)[C@@]1(O)C(=O)COC(=O)CCC(=O)O [BMS, β-methasone hemisuccinate] ; concentration at 1 h = 2900 ng/g

###

assay: Biodistribution of BMS administered as free BMS or nSSL-BMS; conditions: C57Bl/6 Ola-Hsd, mouse, liver, iv, 20 mg/kg, BMS in liver, µg drug/g organ, infected mice, 20 mg/kg i.v. on day 6 p.i., 1 h post-injection
assay_readout: concentration at 1 h (ng/g)
// return numeric value only (unit: ng/g, not printed)

Memo: C[C@H]1C[C@H]2[C@@H]3CCC4=CC(=O)C=C[C@]4(C)[C@@]3(F)[C@@H](O)C[C@]2(C)[C@@]1(O)C(=O)COC(=O)CCC(=O)O [BMS, β-methasone hemisuccinate] , reported concentration at 1 h: 2400

###

experiment: Biodistribution of BMS administered as free BMS or nSSL-BMS; settings: C57Bl/6 Ola-Hsd, mouse, heart, iv, 20 mg/kg, BMS in heart, µg drug/g organ, infected mice, 20 mg/kg i.v. on day 6 p.i., 24 h post-injection
assay_readout: concentration at 24 h

concentration at 24 h in this record for C[C@H]1C[C@H]2[C@@H]3CCC4=CC(=O)C=C[C@]4(C)[C@@]3(F)[C@@H](O)C[C@]2(C)[C@@]1(O)C(=O)COC(=O)CCC(=O)O [BMS, β-methasone hemisuccinate] : ~3000 ng/g
